- measured.on: hCA XII (Homo sapiens)
- Sequence (O43570 25-354): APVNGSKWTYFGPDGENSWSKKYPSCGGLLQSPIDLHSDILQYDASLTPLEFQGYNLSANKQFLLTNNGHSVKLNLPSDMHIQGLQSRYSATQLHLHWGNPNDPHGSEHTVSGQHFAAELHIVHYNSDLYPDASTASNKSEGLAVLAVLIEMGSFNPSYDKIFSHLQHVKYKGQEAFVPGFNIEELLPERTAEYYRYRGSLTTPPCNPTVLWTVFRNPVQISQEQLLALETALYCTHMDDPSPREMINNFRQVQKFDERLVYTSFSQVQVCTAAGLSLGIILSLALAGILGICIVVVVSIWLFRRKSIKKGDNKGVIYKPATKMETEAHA
# note: boundary value 0.04 µM maps to no; Ki below it maps to yes

[[record]]
smiles_record = "NS(=O)(=O)c1ccc(Nc2nc3nccc(-c4cccs4)n3n2)cc1"
measured_on = "hCA XII (Homo sapiens)"
label_value = "no"

[[record]]
smiles_record = "NS(=O)(=O)c1ccc(Nc2nc3nccc(-c4c(F)ccc(F)c4F)n3n2)cc1"
measured_on = "hCA XII (Homo sapiens)"
label_value = "yes"

[[record]]
smiles_record = "NS(=O)(=O)c1ccc(Nc2nc3nccc(-c4ccc(Br)cc4)n3n2)cc1"
measured_on = "hCA XII (Homo sapiens)"
label_value = "no"

[[record]]
smiles_record = "Cc1ccccc1-c1ccnc2nc(Nc3ccc(S(N)(=O)=O)cc3)nn12"
measured_on = "hCA XII (Homo sapiens)"
label_value = "yes"


Values were extracted from paper PMC10586084.
